- testSummary: H1N1 influenza NS1A inhibitors, functional cell based assay (AID 504329)
- cond: percent inhibition, at 12.5 µM, hits give high values
The campaign covered roughly 340,000 compounds. About 1,000 (0.29%) were called active. These entries were drawn from the full list. Entries with a potency or affinity are not part of this list.

compound: CCc1ccc2c(c1)C1(NN=C(c3cccc4ccccc34)S1)C(=O)N2 (stereo not given)
resultUnit: %
inhibition: 11.6
//
compound: CCOC(=O)N1CCN(c2cc(NCCO)c([N+](=O)[O-])c3nonc23)CC1
resultUnit: %
inhibition: -0.42
//
compound: CCOC(=O)C1CCN(C(=O)C2CCC(=O)N(Cc3cccc(C(F)(F)F)c3)C2)CC1 (stereo not given)
resultUnit: %
inhibition: 11.5
//
compound: COC(=O)/C(N=Nc1c(C)n(C)n(-c2ccccc2)c1=O)=C(\C)O
resultUnit: %
inhibition: 8.11
//
compound: Cc1c(N=N/C(C(=O)Nc2ccccc2)=C(/O)c2ccccc2)c(=O)n(-c2ccccc2)n1C
resultUnit: %
inhibition: 12.5
//
compound: Cc1ccc(CNc2cc(C(=O)O)ccc2C)s1
resultUnit: %
inhibition: 14.2
//
compound: COc1ccc(S(=O)(=O)n2nc(-c3ccc(Cl)cc3)cc2N)cc1
resultUnit: %
inhibition: 2.77
//
compound: C=CCOc1ccc(C(=O)c2ccccc2)c(OCC(=O)NC2(C#N)CCCC2)c1
resultUnit: %
inhibition: 5.71
//
compound: Cc1ccsc1C1CC(=O)NC2=C1C(=O)CC(C)(C)C2 (stereo not given)
resultUnit: %
inhibition: -0.46
//
compound: CCOC(=O)/C(N=Nc1c(C)n(C)n(-c2ccccc2)c1=O)=C(/O)c1ccccc1
resultUnit: %
inhibition: 3.43

----------
Below, each entry is listed alongside its reported inhibition.
- testSummary: H1N1 influenza NS1A inhibitors, functional cell based assay (AID 504329)
- cond: percent inhibition, at 12.5 µM, hits give high values
Out of some 340,000 compounds screened, about 1,000 (0.29%) were called active. A selection follows. Potency and affinity values are given separately.
readoutLabel: inhibition (%)

structureNotation: COc1ccc(C(=O)N/N=C(\Cc2ncc[nH]2)c2ccccc2)cc1
result: 1.55
//
structureNotation: CC(=O)N(C)C1=Nc2ccc(Cl)cc2C(c2ccccc2)=[N+]([O-])C1
result: -5.29
//
structureNotation: CCCSc1ccc([C@H]2N[C@@](C)(C(=O)OC)[C@H]3C(=O)N(C)C(=O)[C@@H]23)cc1
result: 6.02
//
structureNotation: Cc1cc(S(=O)(=O)Nc2ccc(N3CCOCC3)cc2)ccc1Br
result: 9.89
//
structureNotation: O=C(Cc1ccccc1)N/N=C/c1ccccn1
result: -2.81

----------
- testSummary: H1N1 influenza NS1A inhibitors, functional cell based assay (AID 504329)
- cond: percent inhibition, at 12.5 µM, hits give high values
Out of some 340,000 compounds screened, about 1,000 (0.29%) were called active. Only a sample is shown. Measured potencies and affinities stand elsewhere.
Property: inhibition; scope: individual molecules

molecule: CC(C)Sc1cc(N2CCCC2)nc(-c2ccccc2)n1
inhibition [%]: -8.52
--
molecule: Cc1ccc(C2/C(=C(\O)c3c(C)nc4ccccn34)C(=O)C(=O)N2CCN(C)C)o1 (stereo unspecified)
inhibition [%]: -13.9
--
molecule: CSCCC(NC(=O)c1ccccc1)C(=O)NC1CCCC1 (stereo unspecified)
inhibition [%]: 1.8
--
molecule: O=C(N/N=C/c1coc2ccc(Cl)cc2c1=O)c1ccncc1
inhibition [%]: 2.11
--
molecule: CCc1cccc(NC(=O)CCCN2C(=O)NC(C)(C)C2=O)c1
inhibition [%]: -6.41
--
molecule: CCCOc1ccc(/C=N/Nc2ccc(C(=O)O)cc2)c(OCCC)c1
inhibition [%]: 10.8
--
molecule: COc1ccc(C(=O)NC(C)CCCC(C)(C)O)cc1OC1CCN(C(C)=O)CC1 (stereo unspecified)
inhibition [%]: -0.26
--
molecule: O=C(c1ccccc1)N1CCCC(C(=O)N2CCc3ccccc3C2)C1 (stereo unspecified)
inhibition [%]: -4.42
--
molecule: Cc1cc(OCC(=O)N2CCC(C(=O)O)CC2)c2c3c(c(=O)oc2c1)CCC3
inhibition [%]: -2.02
--
molecule: COc1ccccc1/C=N/NC(=O)Cn1cnc([N+](=O)[O-])n1
inhibition [%]: 2.27
--
molecule: COc1ccc(NC(=O)COC(=O)CN2C(=O)C3CCCCC3C2=O)cc1OC (stereo unspecified)
inhibition [%]: -0.56
--
molecule: COc1ccccc1N1CCN(C(=O)c2sc3ncn(CC(=O)N4CCC(C)CC4)c(=O)c3c2C)CC1
inhibition [%]: 6.39
--
molecule: COc1ccccc1/C=N\Nc1ccccc1[N+](=O)[O-]
inhibition [%]: 9.18
--
molecule: CC(C)C(c1nnnn1C(C)(C)C)N1CCC(Cc2ccccc2)CC1 (stereo unspecified)
inhibition [%]: -3.35
--
molecule: CCc1cccc(NC(=O)CCSCCC(=O)Nc2cccc(CC)c2)c1
inhibition [%]: 14.8
--
molecule: Cc1nnc(SCC(=O)Nc2ccc(Cl)cn2)n1Cc1ccccc1
inhibition [%]: 1.7
--
molecule: COP(=O)(OC)C1(O)C(=O)Nc2ccc(Br)cc21 (stereo unspecified)
inhibition [%]: -4.97
--
molecule: CCOc1ccc(C(C(=O)NC2CCCCC2)N(C(=O)c2ccccn2)c2cccnc2)cc1 (stereo unspecified)
inhibition [%]: -3.97
--
molecule: O=C(N/N=C/c1ccc(O)cc1)c1ccncc1
inhibition [%]: -6.99
--
molecule: COC(=O)CCCCC1SCC2NC(=O)NC21 (stereo unspecified)
inhibition [%]: 1.31
--
molecule: S=C(CN1CCCC1=S)NCCc1ccccc1
inhibition [%]: -5.27
--
molecule: O=[N+]([O-])c1ccccc1N/N=C\c1ccccc1Cl
inhibition [%]: 1.01
--
molecule: O=[N+]([O-])c1ccc(N/N=C/c2c[nH]c3ccccc23)cc1
inhibition [%]: 7.03
--
molecule: O=[N+]([O-])c1ccc(CSc2nc3ccccc3o2)cc1
inhibition [%]: 11.7
--
molecule: Cn1c(SCC(=O)Nc2ccc(C(N)=O)cc2)nc2c(c1=O)SCC2
inhibition [%]: -1.68
--
molecule: O=C(N/N=C/c1ccccc1Cl)c1ccncc1
inhibition [%]: 2.1
--
molecule: CCOc1ccccc1/C=N/Nc1ccccc1[N+](=O)[O-]
inhibition [%]: 28.9
--
molecule: COc1ccc(CCC(=O)OCC(=O)Nc2ccccc2OC(F)F)cc1OC
inhibition [%]: -3.13
--
molecule: O=C(O)CCCCC1SCC2NC(=O)NC21 (stereo unspecified)
inhibition [%]: 22.1
--
molecule: O=C(CNC(=O)c1ccncc1)N/N=C/c1ccc(O)cc1O
inhibition [%]: 9.53
--
molecule: Cc1ccc(S(=O)(=O)Nc2nc3ccccc3nc2NCC2CCCO2)cc1C (stereo unspecified)
inhibition [%]: -0.91
--
molecule: COc1cccc(/C=N/NC(=O)CNC(=O)c2ccncc2)c1O
inhibition [%]: 10.4
--
molecule: CCCSc1nc2cc(C)c(C)cc2n1CC(C)O (stereo unspecified)
inhibition [%]: -12.9
--
molecule: COc1ccc(CNC(=O)C(C)Sc2ccc(S(=O)(=O)N3CCOCC3)cn2)cc1 (stereo unspecified)
inhibition [%]: -8.84
--
molecule: CCCC(C)C(=O)Nc1cccc(NC(C)=O)c1 (stereo unspecified)
inhibition [%]: -2.06
--
molecule: O=C(Cn1cnc([N+](=O)[O-])n1)N/N=C/c1ccc2ccccc2c1
inhibition [%]: -2.51
--
molecule: C=CCN(c1ccccc1)S(=O)(=O)c1cccc(C(=O)NCC(c2ccc(OC)cc2)N2CCCCC2)c1 (stereo unspecified)
inhibition [%]: 3.3
--
molecule: C/C(=N\NC(=O)CN1CCN(Cc2ccccc2)CC1)c1cccs1
inhibition [%]: 0.29
--
molecule: CN(C)c1ccc(/C=N/N2C(=O)c3ccccc3C2=O)cc1
inhibition [%]: -9.49
--
molecule: CCOc1ccc(OCCC(=O)OCC(=O)NCc2ccccc2)cc1
inhibition [%]: 4.79
--
molecule: Cc1ccccc1/C=N/NC(=O)Cn1cnc([N+](=O)[O-])n1
inhibition [%]: 0.54
--
molecule: COc1ccc(S(=O)(=O)N2CN3CCN(C3)C2)cc1OC
inhibition [%]: -1.61
--
molecule: O=[N+]([O-])c1cc(/C=N\Nc2ccccn2)ccc1Cl
inhibition [%]: -4.08
--
molecule: CCOP(=O)(OCC)C(NC(=O)Nc1ccc(Cl)cc1)C(N)=O (stereo unspecified)
inhibition [%]: -4.5
--
molecule: O=C(Cn1cnc([N+](=O)[O-])n1)N/N=C/c1cccc2ccccc12
inhibition [%]: 5.61
--
molecule: Cc1cccc(OCCCC(=O)NNC(=O)c2ccc(F)cc2)c1
inhibition [%]: -5.91

----------
- testSummary: H1N1 influenza NS1A inhibitors, functional cell based assay (AID 504329)
- cond: percent inhibition, at 12.5 µM, hits give high values
Hit rate of the full screen: of about 340,000 compounds, about 1,000 (0.29%) were called active. Not all results are given here. Results with a measured potency or affinity are listed apart.

compound: COc1cccc(C(=O)Oc2c(CN3CCOCC3)cc(Cl)c3cccnc23)c1
resultUnit: %
inhibition: 4.96
//
compound: COc1ccc(CNCCC(c2ccc(OC(C)C)cc2)C(C)C)cc1OC (centres undefined)
resultUnit: %
inhibition: 5.92
//
compound: COC(=O)[C@@H]1C[C@@]2(O)[C@@H](O)[C@@H](O)[C@@H](O)C[C@H]2N1CC1CCCCC1
resultUnit: %
inhibition: -4.19
//
compound: COc1cc(O)c(C(CCN2CCCC2)c2ccc(N(C)C)cc2)c(OC)c1 (centres undefined)
resultUnit: %
inhibition: 26.1
//
compound: COc1cc(Br)cc(CN2CCN(C)CC2)c1O
resultUnit: %
inhibition: 2.34
//
compound: COc1cc(Br)cc(CN2CCN(c3ncccn3)CC2)c1O
resultUnit: %
inhibition: -10.6
//
compound: CN1CCN(C(=O)CNC(=O)C23CC4CC(CC(C4)C2)C3)CC1
resultUnit: %
inhibition: -0.78
//
compound: C#CCOCCOCCOCCNc1nc(N2CCN(C(=O)CCCCCCCCCCNC(=O)[C@H]([C@@H](C)CC)n3cc(CCCCCN)nn3)CC2)nc(N2CCN(C(=O)CCCCCCCCCCNC(=O)[C@H](CO)n3cc(CCCCCN)nn3)CC2)n1
resultUnit: %
inhibition: 22.1
//
compound: CCN(CC)CCNC(=O)c1cc(Sc2nnc(C)s2)nc2ccccc12
resultUnit: %
inhibition: -9.1
